- target: T1, huMICA*004 alpha 3-his (human)
- T1 construct: whole construct entry: GS, alpha 3 domain, GNS, His8; also called MICA004.His; MICA*004 alpha3 construct
- T1 chain: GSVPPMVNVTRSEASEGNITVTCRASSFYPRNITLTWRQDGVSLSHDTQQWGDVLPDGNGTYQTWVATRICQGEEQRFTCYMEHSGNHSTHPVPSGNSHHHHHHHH
- protocol notes: SPR, Biacore 8K, antibody on Protein A chip
endpoint: pKd
A value of pKd is the negative decimal logarithm of a concentration given in moles per litre.

Prompt line: Give the reported pKd for this binder. 13A9v4 (antibody, IgG1, V domains shown, humanized variant of 13A9) VH: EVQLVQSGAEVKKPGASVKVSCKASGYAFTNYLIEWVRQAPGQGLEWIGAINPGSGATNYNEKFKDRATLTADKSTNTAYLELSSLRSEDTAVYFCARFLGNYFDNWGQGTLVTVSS VL: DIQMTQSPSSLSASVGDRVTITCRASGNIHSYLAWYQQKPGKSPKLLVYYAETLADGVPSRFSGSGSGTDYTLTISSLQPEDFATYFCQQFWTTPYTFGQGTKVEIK
Response line: 8.43

Here is the next item to consider.
Prompt line: Give the reported pKd for this binder. 1D5v14 (antibody, IgG1, V domains shown, humanized variant of 1D5; also called 1D5v14 second data point) VH: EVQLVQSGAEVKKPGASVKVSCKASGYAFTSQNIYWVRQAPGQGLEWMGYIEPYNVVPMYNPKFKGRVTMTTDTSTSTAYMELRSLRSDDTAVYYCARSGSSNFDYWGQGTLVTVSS VL: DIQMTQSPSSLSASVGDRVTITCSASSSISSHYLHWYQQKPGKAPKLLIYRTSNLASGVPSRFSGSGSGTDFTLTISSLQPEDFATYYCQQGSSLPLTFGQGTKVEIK
Response line: 8.91

Just for reference, patent US20200055939A1 is where these values come from.
